# System: 782815-120-R-J1-PDC complex spheroid viability
# test-method-notes: Anticancer human tumor 782815-120-R-J1-PDC patient-derived colon adenocarcinoma cell line growth inhibition [RAS]
# experimental-context: second compound 0.0949 µM; first compound 0.01 µM; hits give low values
viability, T/C less than 20% is yes; viability, T/C greater than or equal to 20% is no.

Is viability, T/C of C=CC(=O)N1CCN(c2nc(OCC3CCCN3C)nc3c(F)c(-c4nc(N)cc(C)c4C(F)(F)F)c(Cl)cc23)C(C)C1 (stereo not drawn) + CCn1c(-c2cccnc2C(C)OC)c2c3cc(ccc31)N1CCOC(CC(NC(=O)C(C(C)C)N(C)C(=O)C3(F)CCN(C(=O)C#CC(C)(C)N(C)C)CC3)C(=O)N3CCCC(N3)C(=O)OCC(C)(C)C2)C1 strictly below 20%? no

Is viability, T/C of C=CC(=O)Nc1cc(Nc2nccc(-c3cn(C)c4ccccc34)n2)c(OC)cc1N(C)CCN(C)C + CCn1c(-c2cc(N3CCN(C)CC3)cnc2C(C)OC)c2c3cc(ccc31)-c1csc(n1)CC(NC(=O)C1CC1C)C(=O)N1CCCC(N1)C(=O)OCC(C)(C)C2 strictly below 20%? yes

Is viability, T/C of O=C(c1ccc(F)c(F)c1Nc1ccc(I)cc1F)N1CC(O)([C@@H]2CCCCN2)C1 + CCn1c(-c2cccnc2C(C)OC)c2c3cc(ccc31)N1CCOC(CC(NC(=O)C(C(C)C)N(C)C(=O)C3(F)CCN(C(=O)C#CC(C)(C)N(C)C)CC3)C(=O)N3CCCC(N3)C(=O)OCC(C)(C)C2)C1 strictly below 20%? no

Is viability, T/C of O=C(c1ccc(F)c(F)c1Nc1ccc(I)cc1F)N1CC(O)([C@@H]2CCCCN2)C1 + CCn1c(-c2cc(N3CCN(C)CC3)cnc2C(C)OC)c2c3cc(ccc31)-c1csc(n1)CC(NC(=O)C1CC1C)C(=O)N1CCCC(N1)C(=O)OCC(C)(C)C2 strictly below 20%? yes

Is viability, T/C of Nc1ccn(C2OC(CO)C(O)C2(F)F)c(=O)n1 (stereo not drawn) + CCn1c(-c2cc(N3CCN(C)CC3)cnc2C(C)OC)c2c3cc(ccc31)-c1csc(n1)CC(NC(=O)C1CC1C)C(=O)N1CCCC(N1)C(=O)OCC(C)(C)C2 strictly below 20%? yes

----------
# Tested on: 782815-120-R-J1-PDC complex spheroid viability
# test-method-notes: Anticancer human tumor 782815-120-R-J1-PDC cell line growth inhibition [RAS];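 further: spheroids exposed to compounds for 7 days before reading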
# experimental-context: second compound 0.000949 µM; first compound 0.0316 µM; hits give low values
# Source text: RAS pathway inhibitors in Combinations in Complex Spheroids A high-throughput screen of multi-cell type tumor spheroids was designed to identify active combinations of RAS pathway inhibitors and targeted small molecules. Complex spheroids include a stromal component modeled by human endothelial cells (HUVEC) and fibroblasts modeled by human mesenchymal stem cells (MSCs). […] Compounds. […] If the clinical Cmax for an agent had not been determined, the highest concentration tested was 10 microM. […]
viability, T/C less than 60% is Yes; viability, T/C greater than or equal to 60% is No.

Known results for compounds:
• Nc1ccn(C2OC(CO)C(O)C2(F)F)c(=O)n1 (stereo not drawn) + CCn1c(-c2cc(N3CCN(C)CC3)cnc2C(C)OC)c2c3cc(ccc31)-c1csc(n1)CC(NC(=O)C1CC1C)C(=O)N1CCCC(N1)C(=O)OCC(C)(C)C2 = Yes
• Nc1ccn(C2OC(CO)C(O)C2(F)F)c(=O)n1 (stereo not drawn) + CCn1c(-c2cccnc2C(C)OC)c2c3cc(ccc31)N1CCOC(CC(NC(=O)C(C(C)C)N(C)C(=O)C3(F)CCN(C(=O)C#CC(C)(C)N(C)C)CC3)C(=O)N3CCCC(N3)C(=O)OCC(C)(C)C2)C1 = Yes
• CC(=O)OC12COC1CC(O)C1(C)C(=O)C(O)C3=C(C)C(OC(=O)C(O)C(NC(=O)OC(C)(C)C)c4ccccc4)CC(O)(C(OC(=O)c4ccccc4)C21)C3(C)C (stereo not drawn) + CCn1c(-c2cccnc2C(C)OC)c2c3cc(ccc31)N1CCOC(CC(NC(=O)C(C(C)C)N(C)C(=O)C3(F)CCN(C(=O)C#CC(C)(C)N(C)C)CC3)C(=O)N3CCCC(N3)C(=O)OCC(C)(C)C2)C1 = Yes
• CC(C)n1nc(-c2ccc3oc(N)nc3c2)c2c(N)ncnc21 + CCn1c(-c2cccnc2C(C)OC)c2c3cc(ccc31)N1CCOC(CC(NC(=O)C(C(C)C)N(C)C(=O)C3(F)CCN(C(=O)C#CC(C)(C)N(C)C)CC3)C(=O)N3CCCC(N3)C(=O)OCC(C)(C)C2)C1 = No
• O=C(c1ccc(F)c(F)c1Nc1ccc(I)cc1F)N1CC(O)([C@@H]2CCCCN2)C1 + CCn1c(-c2cc(N3CCN(C)CC3)cnc2C(C)OC)c2c3cc(ccc31)-c1csc(n1)CC(NC(=O)C1CC1C)C(=O)N1CCCC(N1)C(=O)OCC(C)(C)C2 = Yes

Is viability, T/C of NC1c2ccccc2OC12CCN(c1cnc3c(N4CCCc5ncccc54)n[nH]c3n1)CC2 (stereo not drawn) + CCn1c(-c2cc(N3CCN(C)CC3)cnc2C(C)OC)c2c3cc(ccc31)-c1csc(n1)CC(NC(=O)C1CC1C)C(=O)N1CCCC(N1)C(=O)OCC(C)(C)C2 strictly below 60%? No

Is viability, T/C of CCN1CCN(Cc2ccc(Nc3ncc(F)c(-c4cc(F)c5nc(C)n(C(C)C)c5c4)n3)nc2)CC1 + CCn1c(-c2cc(N3CCN(C)CC3)cnc2C(C)OC)c2c3cc(ccc31)-c1csc(n1)CC(NC(=O)C1CC1C)C(=O)N1CCCC(N1)C(=O)OCC(C)(C)C2 strictly below 60%? No
